Molecular target: human muscarinic M3 receptor (Homo sapiens, UniProt P20309)
Sequence (P20309 whole entry): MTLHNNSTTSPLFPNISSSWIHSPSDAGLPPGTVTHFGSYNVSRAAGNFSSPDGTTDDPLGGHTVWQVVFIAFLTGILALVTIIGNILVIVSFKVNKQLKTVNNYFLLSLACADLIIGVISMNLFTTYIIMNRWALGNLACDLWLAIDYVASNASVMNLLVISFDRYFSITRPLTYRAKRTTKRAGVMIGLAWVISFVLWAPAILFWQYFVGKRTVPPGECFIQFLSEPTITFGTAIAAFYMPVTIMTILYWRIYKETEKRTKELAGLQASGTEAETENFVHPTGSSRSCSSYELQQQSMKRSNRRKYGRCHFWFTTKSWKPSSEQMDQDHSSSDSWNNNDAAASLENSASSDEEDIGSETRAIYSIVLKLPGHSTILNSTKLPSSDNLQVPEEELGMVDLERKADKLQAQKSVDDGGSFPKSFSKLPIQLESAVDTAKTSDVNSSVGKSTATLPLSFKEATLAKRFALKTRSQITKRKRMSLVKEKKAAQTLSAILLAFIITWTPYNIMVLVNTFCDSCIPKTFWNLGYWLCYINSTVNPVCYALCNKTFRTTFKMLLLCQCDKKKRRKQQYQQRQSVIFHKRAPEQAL
Assay: hM3 β-Lac potency assay (NFAT-Betalactamase reporter in CHO-K1 cells)
Details: CHO cells recombinantly expressing human M3, NFAT β-lactamase reporter; inhibition of 80 nM carbamyl choline signal, 4 h; IC50 converted to Ki by Cheng-Prusoff; read-out: Cell based β-lactamase M3 Ki
We'd kindly ask you to apply these Ki classes: low range (below 1 nM), mid range (1 nM to below 3 nM), high range (3 nM or more)

Smiles String	Study Target	Class
CC(C)N(CC[C@H](c1ccccc1)c1cc(CCOc2ccc(CCNCc3cc(F)c(O)c(Cl)c3)cc2)ccc1O)C(C)C	human muscarinic M3 receptor (Homo sapiens, UniProt P20309)	high range
CC(C)N(CC[C@H](c1ccccc1)c1cc(CCOc2ccc(CCNC3CCCCC3)cc2)ccc1O)C(C)C	human muscarinic M3 receptor (Homo sapiens, UniProt P20309)	high range
CC(C)N(CC[C@H](c1ccccc1)c1cc(CCOc2ccc(CCNCc3cc(Cl)c(O)c(Cl)c3)cc2)ccc1O)C(C)C	human muscarinic M3 receptor (Homo sapiens, UniProt P20309)	high range
CC(C)N(CC[C@H](c1ccccc1)c1cc(CCOc2ccc(CCNCc3cccc(O)c3)cc2)ccc1O)C(C)C	human muscarinic M3 receptor (Homo sapiens, UniProt P20309)	high range
CC(C)N(CC[C@H](c1ccccc1)c1cc(CCOc2ccc(CCNC(=O)c3cc(Cl)c(O)c(Cl)c3)cc2)ccc1O)C(C)C	human muscarinic M3 receptor (Homo sapiens, UniProt P20309)	mid range
CC(C)N(CC[C@H](c1ccccc1)c1cc(CCOc2ccc(CCNCc3cc(F)cc(F)c3O)cc2)ccc1O)C(C)C	human muscarinic M3 receptor (Homo sapiens, UniProt P20309)	high range
CC(C)N(CC[C@H](c1ccccc1)c1cc(CCOc2ccc(CCNCc3ccc(O)c(F)c3)cc2)ccc1O)C(C)C	human muscarinic M3 receptor (Homo sapiens, UniProt P20309)	high range
CC(C)N(CC[C@H](c1ccccc1)c1cc(CCOc2ccc(CCNCc3cc(F)c(O)c(F)c3)cc2)ccc1O)C(C)C	human muscarinic M3 receptor (Homo sapiens, UniProt P20309)	mid range
CC(C)N(CC[C@H](c1ccccc1)c1cc(CCOc2ccc(CCNCc3cccc(Cl)c3)cc2)ccc1O)C(C)C	human muscarinic M3 receptor (Homo sapiens, UniProt P20309)	high range
CC(C)N(CC[C@H](c1ccccc1)c1cc(CCOc2ccc(CCNCc3ccc(F)c(O)c3)cc2)ccc1O)C(C)C	human muscarinic M3 receptor (Homo sapiens, UniProt P20309)	high range
CC(C)N(CC[C@H](c1ccccc1)c1cc(CCOc2ccc(CCNC(=O)c3ccc(F)c(O)c3)cc2)ccc1O)C(C)C	human muscarinic M3 receptor (Homo sapiens, UniProt P20309)	low range
CC(C)N(CC[C@H](c1ccccc1)c1cc(CCOc2ccc(CCNC(=O)c3ccc(O)cc3Cl)cc2)ccc1O)C(C)C	human muscarinic M3 receptor (Homo sapiens, UniProt P20309)	low range
CC(C)N(CC[C@H](c1ccccc1)c1cc(CCOc2ccc(CCNCc3ccccc3)cc2)ccc1O)C(C)C	human muscarinic M3 receptor (Homo sapiens, UniProt P20309)	low range
CC(C)N(CC[C@H](c1ccccc1)c1cc(CCOc2ccc(CCN(C)C)cc2)ccc1O)C(C)C	human muscarinic M3 receptor (Homo sapiens, UniProt P20309)	mid range
CC(C)N(CC[C@H](c1ccccc1)c1cc(CCOc2ccc(CCNC(=O)CC3CC3)cc2)ccc1O)C(C)C	human muscarinic M3 receptor (Homo sapiens, UniProt P20309)	mid range
CC(C)N(CC[C@H](c1ccccc1)c1cc(CCOc2ccc(CCNCc3cc(O)cc(O)c3)cc2)ccc1O)C(C)C	human muscarinic M3 receptor (Homo sapiens, UniProt P20309)	high range
CC(C)N(CC[C@H](c1ccccc1)c1cc(CCOc2ccc(CCNS(=O)(=O)c3ccc(O)cc3)cc2)ccc1O)C(C)C	human muscarinic M3 receptor (Homo sapiens, UniProt P20309)	mid range
CC(C)N(CC[C@H](c1ccccc1)c1cc(CCOc2ccc(CCNC(=O)c3ccc(O)c(F)c3)cc2)ccc1O)C(C)C	human muscarinic M3 receptor (Homo sapiens, UniProt P20309)	high range
CC(C)N(CC[C@H](c1ccccc1)c1cc(CCOc2ccc(CCNC(=O)c3ccc(O)cc3)cc2)ccc1O)C(C)C	human muscarinic M3 receptor (Homo sapiens, UniProt P20309)	low range
CC(C)N(CC[C@H](c1ccccc1)c1cc(CCOc2ccc(CCNC(=O)C3CCCC3)cc2)ccc1O)C(C)C	human muscarinic M3 receptor (Homo sapiens, UniProt P20309)	high range
CC(C)N(CC[C@H](c1ccccc1)c1cc(CCOc2ccc(CCNC(=O)Cc3ccc(O)c(Cl)c3)cc2)ccc1O)C(C)C	human muscarinic M3 receptor (Homo sapiens, UniProt P20309)	mid range
CC(C)N(CC[C@H](c1ccccc1)c1cc(CCOc2ccc(CCNCc3cccc(F)c3O)cc2)ccc1O)C(C)C	human muscarinic M3 receptor (Homo sapiens, UniProt P20309)	mid range
CC(C)N(CC[C@H](c1ccccc1)c1cc(CCOc2ccc(CCNC(=O)[C@]34C[C@H]5C[C@H](C[C@H](C5)C3)C4)cc2)ccc1O)C(C)C	human muscarinic M3 receptor (Homo sapiens, UniProt P20309)	high range
CC(C)N(CC[C@H](c1ccccc1)c1cc(CCOc2ccc(CCNCc3cccc(O)c3F)cc2)ccc1O)C(C)C	human muscarinic M3 receptor (Homo sapiens, UniProt P20309)	mid range
CC(C)N(CC[C@H](c1ccccc1)c1cc(CCOc2ccc(CCNCc3ccc(O)c(Cl)c3)cc2)ccc1O)C(C)C	human muscarinic M3 receptor (Homo sapiens, UniProt P20309)	high range
CC(C)N(CC[C@H](c1ccccc1)c1cc(CCOc2ccc(CCNC(=O)c3ccc(O)c(Cl)c3)cc2)ccc1O)C(C)C	human muscarinic M3 receptor (Homo sapiens, UniProt P20309)	low range
